Provenance of the data: patent US20070112018A1

# test.description: Phase 1 Study ABI-1648-006, single oral dose pharmacokinetics
# measurement.conditions: female, human, plasma, po, 12.5 mg, AUC0−∞ GMean (geometric mean), females, single oral dose 12.5 mg
attribute.measured: AUC(0-inf) (ng·h/mL)
# output: bare number, implied unit ng·h/mL

Indicate the recorded AUC(0-inf) value for this compound: CO[C@H]1/C=C/O[C@@]2(C)Oc3c(C)c(O)c4c(=O)c(c5oc6cc(N7CCN(CC(C)C)CC7)cc(O)c6nc-5c4c3C2=O)NC(=O)/C(C)=C\C=C\[C@H](C)[C@H](O)[C@@H](C)[C@@H](O)[C@@H](C)[C@H](OC(C)=O)[C@@H]1C
526
